Values from patent US20210221784A1

OBSERVATION_TYPE: melting point

Qu. Param item = `Nc1ccc(-c2ccc(N3CCOCC3)nc2)c(N)n1` ; retrieve measured melting point.
Ans. 201 to 205 °C

Qu. Param item = `COc1ccc2ccccc2c1-c1ccc(N)nc1N` ; retrieve measured melting point.
Ans. 63 to 67 °C

Qu. Param item = `COc1ccccc1-c1cnc(N)cc1OCCN.Cl` ; retrieve measured melting point.
Ans. 218 to 224 °C

Qu. Param item = `COc1ccccc1-c1cnc(N)c(C)c1` ; retrieve measured melting point.
Ans. 92 to 95 °C

Qu. Param item = `Nc1ccc(-c2ccc(N)nc2N)cn1` ; retrieve measured melting point.
Ans. 220 to 240 °C

====

OBSERVATION_TYPE: melting point

Qu. Param item = CC(=O)Nc1ccccc1-c1ccc(N)nc1N [Compound 62] ; retrieve measured melting point.
Ans. 60 to 70 °C

Qu. Param item = Cc1ccc(-c2ccc(N)nc2N)c(OC(C)C)c1 [Compound 46] ; retrieve measured melting point.
Ans. 75 to 80 °C

Qu. Param item = COc1ccccc1-c1c(C)cc(N)nc1C [Compound 27] ; retrieve measured melting point.
Ans. 178 to 181 °C

Qu. Param item = CS(=O)(=O)c1ccccc1-c1ccc(N)nc1N.Cl [Compound 63] ; retrieve measured melting point.
Ans. 55 to 65 °C

Qu. Param item = Nc1cc(F)c(-c2cccc(Cl)c2Cl)cn1 [Compound 17] ; retrieve measured melting point.
Ans. 107 to 112 °C

Qu. Param item = Nc1ccc(-c2cnc(N)c(C(F)(F)F)c2)c(N)n1 [Compound 83] ; retrieve measured melting point.
Ans. 154 to 155 °C

Qu. Param item = COc1ccccc1-c1cnc(N)c(C(F)(F)F)c1 [Compound 14] ; retrieve measured melting point.
Ans. 63 to 67 °C

Qu. Param item = COc1ccccc1-c1cnc(N)cc1F [Compound 18] ; retrieve measured melting point.
Ans. 65 to 70 °C

Qu. Param item = CCc1nc(N)ccc1-c1ccccc1OC1CCCC1.Cl [Compound 76] ; retrieve measured melting point.
Ans. 80 to 93 °C

====

target: human NPFFR1 (hNPFFR1) receptor (Homo sapiens, UniProt Q9GZQ6); assay: Human NPFFR1 evaluation using BRET biosensors in HEK-293 T cells; settings: hNPFFR1 in HEK-293 T cells, stimulated by EC80 RFRP-3, read-out: IC50 of antagonist activity
Sequence (Q9GZQ6 whole entry): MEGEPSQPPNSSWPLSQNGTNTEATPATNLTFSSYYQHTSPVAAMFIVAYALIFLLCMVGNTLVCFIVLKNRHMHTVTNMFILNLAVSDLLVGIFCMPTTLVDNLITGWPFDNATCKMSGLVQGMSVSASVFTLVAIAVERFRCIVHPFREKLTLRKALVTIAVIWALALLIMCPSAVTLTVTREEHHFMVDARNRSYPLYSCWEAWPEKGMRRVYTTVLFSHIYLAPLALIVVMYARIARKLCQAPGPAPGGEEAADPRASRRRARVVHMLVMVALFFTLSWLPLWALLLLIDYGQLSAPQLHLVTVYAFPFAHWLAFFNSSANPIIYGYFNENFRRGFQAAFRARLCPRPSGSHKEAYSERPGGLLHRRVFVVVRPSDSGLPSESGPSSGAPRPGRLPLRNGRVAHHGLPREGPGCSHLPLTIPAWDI
pIC50: −log10 of the molar value.
Answer each item with its documented pIC50.

Qu. Param item = `Nc1ccc(-c2ccccc2OC2CCCC2)c(N)n1` ; retrieve measured pIC50.
Ans. 6.30 to 7.00

Qu. Param item = `Cc1nc(F)ccc1-c1ccc(N)nc1N` ; retrieve measured pIC50.
Ans. < 6.00

Qu. Param item = `COc1ncccc1-c1ccc(N)nc1N` ; retrieve measured pIC50.
Ans. < 6.00

Qu. Param item = `COc1ccccc1-c1ccc(N)nc1C(C)C` ; retrieve measured pIC50.
Ans. 6.00 to 6.30

Qu. Param item = `CC(C)Oc1ccc2ccccc2c1-c1ccc(N)nc1N` ; retrieve measured pIC50.
Ans. 6.00 to 6.30

Qu. Param item = Nc1ccc(Cc2ccc(Cl)cc2)c(N)n1 [Compound 10c, 3-(4-chlorobenzyl)pyridine-2,6-diamine] ; retrieve measured pIC50.
Ans. 6.00 to 6.30

Qu. Param item = `Nc1ccc(-c2cccc3ccccc23)c(N)n1` ; retrieve measured pIC50.
Ans. > 7.00

Qu. Param item = `CCc1nc(N)ccc1-c1ccccc1OC1CC1.Cl` ; retrieve measured pIC50.
Ans. > 7.00

Qu. Param item = `Nc1ccc(-c2cccc(Cl)c2)c(N)n1` ; retrieve measured pIC50.
Ans. 6.00 to 6.30

Qu. Param item = `CC(C)c1ccccc1-c1ccc(N)nc1N` ; retrieve measured pIC50.
Ans. 6.30 to 7.00

Qu. Param item = `COc1ccc(-c2ccc(N)nc2N)c(OC)c1` ; retrieve measured pIC50.
Ans. < 6.00

Qu. Param item = `Cc1cc(Cl)ccc1-c1ccc(N)nc1N` ; retrieve measured pIC50.
Ans. < 6.00

Qu. Param item = `CCc1nc(N)ccc1-c1cccc(Cl)c1C` ; retrieve measured pIC50.
Ans. 6.30 to 7.00

Qu. Param item = `COc1ccccc1-c1ccc(N)nc1C` ; retrieve measured pIC50.
Ans. < 6.00

Qu. Param item = `Cc1ccccc1-c1c(C)cc(N)nc1N` ; retrieve measured pIC50.
Ans. < 6.00

Qu. Param item = `CCc1nc(N)ccc1-c1cccc2ccccc12.Cl` ; retrieve measured pIC50.
Ans. 6.30 to 7.00

Qu. Param item = `CCc1ccccc1-c1ccc(N)nc1N` ; retrieve measured pIC50.
Ans. 6.30 to 7.00

Qu. Param item = `Cl.Nc1ccc(-c2ccccc2OCC2CC2)c(N)n1` ; retrieve measured pIC50.
Ans. > 7.00
